From: patent EP4477673A1

Overview of recorded M07e cell proliferation activity (%) at 1000 nM for various binders
Molecular target: T1, IL-2Rβ/γ on M07e cells (human, UniProt P14784 27-551; P31785 23-369)
T1 sequence (looked up) 1: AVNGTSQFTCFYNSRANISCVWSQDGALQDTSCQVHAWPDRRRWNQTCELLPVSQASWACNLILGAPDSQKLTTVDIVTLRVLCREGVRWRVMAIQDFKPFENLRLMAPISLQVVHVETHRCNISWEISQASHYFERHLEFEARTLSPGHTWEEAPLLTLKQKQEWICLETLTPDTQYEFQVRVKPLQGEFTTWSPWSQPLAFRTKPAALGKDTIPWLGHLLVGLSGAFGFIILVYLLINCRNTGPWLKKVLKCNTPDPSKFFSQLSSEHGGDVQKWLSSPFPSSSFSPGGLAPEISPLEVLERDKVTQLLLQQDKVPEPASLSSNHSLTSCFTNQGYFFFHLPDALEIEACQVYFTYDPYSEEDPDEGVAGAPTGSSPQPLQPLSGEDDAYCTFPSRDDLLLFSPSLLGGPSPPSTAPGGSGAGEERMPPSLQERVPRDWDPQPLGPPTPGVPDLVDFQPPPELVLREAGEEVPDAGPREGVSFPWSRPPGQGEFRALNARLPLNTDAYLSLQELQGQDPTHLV
T1 sequence (looked up) 2: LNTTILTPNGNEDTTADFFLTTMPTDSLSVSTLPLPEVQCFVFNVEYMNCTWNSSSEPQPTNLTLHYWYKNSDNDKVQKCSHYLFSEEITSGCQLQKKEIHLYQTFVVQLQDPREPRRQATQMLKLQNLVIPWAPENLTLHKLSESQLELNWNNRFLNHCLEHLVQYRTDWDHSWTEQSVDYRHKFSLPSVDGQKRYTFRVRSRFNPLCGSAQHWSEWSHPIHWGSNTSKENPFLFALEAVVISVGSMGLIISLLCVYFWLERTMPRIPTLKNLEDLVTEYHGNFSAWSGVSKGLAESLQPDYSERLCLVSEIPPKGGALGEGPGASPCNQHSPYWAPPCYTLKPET
Test: cell-based or functional assay
assay-metric: M07e cell proliferation activity (%) at 1000 nM

binder	unit-spec	value-reported
PEGylated IL-2 mutant (PEG-IL-2v) (ligand, PEGylated (site not stated)) APASSSTKKTQLQLEHLLLDLQMILQGISNYKNPKLTRMLTAKFYMPKKATELKHLQCLEEELKPLEEVLQGAQSKNFHLRPRDLISNINVIVLELKGSETTFMCEYADETATIVEFLNRWITFAQSIISTLT	%	89
A-N88D (Fc fusion, also called PD-1-IL-2v (N88D); not shown: IgG1 hinge (C220S) + Fc Knob chain (L234A, L235A, S354C, T366W, EU); D356/L358 or E356/M358 ver; IgG1 hinge (C220S) + Fc Hole chain (L234A, L235A, Y349C, T366S, L368A, Y407V; may have H435R, Y436F; EU)) chain (part 1 of 2): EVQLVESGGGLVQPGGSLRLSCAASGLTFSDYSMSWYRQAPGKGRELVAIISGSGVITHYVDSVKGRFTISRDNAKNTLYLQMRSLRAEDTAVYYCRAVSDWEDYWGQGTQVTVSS chain (part 2 of 2): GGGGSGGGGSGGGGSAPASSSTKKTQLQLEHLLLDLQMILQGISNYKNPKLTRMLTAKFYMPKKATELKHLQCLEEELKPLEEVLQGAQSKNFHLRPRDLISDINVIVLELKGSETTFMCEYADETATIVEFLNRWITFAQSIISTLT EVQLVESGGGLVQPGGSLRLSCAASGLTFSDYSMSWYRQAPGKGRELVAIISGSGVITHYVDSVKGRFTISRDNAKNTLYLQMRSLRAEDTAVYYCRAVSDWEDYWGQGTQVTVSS	%	14.6
A-D20A (Fc fusion, also called PD-1-IL-2v (D20A); not shown: IgG1 hinge (C220S) + Fc Knob chain (L234A, L235A, S354C, T366W, EU); D356/L358 or E356/M358 ver; IgG1 hinge (C220S) + Fc Hole chain (L234A, L235A, Y349C, T366S, L368A, Y407V; may have H435R, Y436F; EU)) chain (part 1 of 2): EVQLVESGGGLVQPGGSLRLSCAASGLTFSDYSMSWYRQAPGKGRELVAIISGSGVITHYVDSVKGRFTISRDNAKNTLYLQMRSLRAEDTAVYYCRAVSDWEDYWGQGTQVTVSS chain (part 2 of 2): GGGGSGGGGSGGGGSAPASSSTKKTQLQLEHLLLALQMILQGISNYKNPKLTRMLTAKFYMPKKATELKHLQCLEEELKPLEEVLQGAQSKNFHLRPRDLISNINVIVLELKGSETTFMCEYADETATIVEFLNRWITFAQSIISTLT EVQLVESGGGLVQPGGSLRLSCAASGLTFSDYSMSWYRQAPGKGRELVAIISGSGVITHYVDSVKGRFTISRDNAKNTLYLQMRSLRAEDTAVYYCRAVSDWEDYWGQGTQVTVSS	%	0.6
A-PC (Fc fusion, also called positive control molecule A-PC; PD-1-IL-2v; not shown: IgG1 hinge (C220S) + Fc Knob chain (L234A, L235A, S354C, T366W, EU); D356/L358 or E356/M358 ver; IgG1 hinge (C220S) + Fc Hole chain (L234A, L235A, Y349C, T366S, L368A, Y407V; may have H435R, Y436F; EU)) chain (part 1 of 2): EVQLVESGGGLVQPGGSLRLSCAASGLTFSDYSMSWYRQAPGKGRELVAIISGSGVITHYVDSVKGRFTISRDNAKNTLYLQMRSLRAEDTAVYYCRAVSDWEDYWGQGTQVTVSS chain (part 2 of 2): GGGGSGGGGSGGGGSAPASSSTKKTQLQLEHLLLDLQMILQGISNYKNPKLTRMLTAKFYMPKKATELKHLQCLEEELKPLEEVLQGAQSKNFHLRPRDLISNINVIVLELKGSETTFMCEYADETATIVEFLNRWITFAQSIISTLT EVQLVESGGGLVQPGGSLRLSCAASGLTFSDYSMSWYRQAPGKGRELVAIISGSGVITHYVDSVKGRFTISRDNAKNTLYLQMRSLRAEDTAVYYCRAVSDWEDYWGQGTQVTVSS	%	100
